Molecular target: urokinase enzyme Abbokinase (Homo sapiens)
Structures can show the parent of a compound that is named as a salt.
measured.property: IC50 (nM)

{"compound": "N=C(N)c1cc2c(Nc3nccs3)cccc2s1 [Example 2, trifluoroacetic acid salt]", "observed": 192}
